Attribution: patent US12077503B2

- Tested on: barnyardgrass (Echinochloa crus-galli)
- measurement-notes: Test A preemergence
- Assay type: in vivo
- measurement-conditions: Echinochloa crus-galli, pre-emergence, 240 h, 500 g ai/ha, preemergence; 0 to 100 scale where 0 is no effect and 100 is complete control; read-out: Barnyardgrass plant response rating
parameter-measured: pest or weed control at 500 g/ha (%)

1) O=C1NC[C@H](c2nccc(C(F)(F)F)n2)[C@H]1C(=O)Nc1ccccc1F [Compound 1304]	0
2) O=C1NC[C@H](c2ccc(F)c(OC(F)(F)C(F)(F)Br)c2)[C@H]1C(=O)Nc1ccccc1F [Compound 1134]	80
3) CN1C[C@H](c2ccc(C(F)(F)F)cc2)[C@@H](C(=O)Nc2ccccc2)C1=O [Compound 1253]	100
4) CN1C[C@H](c2ccc(C#N)cc2)[C@@H](C(=O)Nc2ccc(F)c(F)c2F)C1=O [Compound 1229]	100
5) Cc1ccc([C@H]2CCN(C)C(=O)[C@@H]2C(=O)Nc2ccccc2C(F)(F)F)cc1 [Compound 1219]	90
6) Cc1cc([C@H]2CN(C)C(=O)[C@@H]2C(=O)Nc2ccccc2F)no1 [Compound 1194]	30
7) COc1cc(C(F)(F)F)ccc1[C@H]1CNC(=O)[C@@H]1C(=O)Nc1cccc(F)c1F [Compound 1203]	90
8) Cc1cc(F)cc([C@H]2CNC(=O)[C@@H]2C(=O)Nc2cccc(F)c2F)c1 [Compound 1309]	90
9) Cc1cccc([C@H]2CN(C)C(=O)[C@@H]2C(=O)Nc2cccc(F)c2C)c1 [Compound 1233]	90
10) CN1CC[C@H](c2ccc(C(F)(F)F)cc2)[C@@H](C(=O)Nc2ccccc2C(F)(F)F)C1=O [Compound 1224]	80
11) CN1CC(c2cccc(Br)c2)C(C(=O)Nc2ccccc2F)C1=O (centres unmarked) [Compound 1132]	90
